# system_under_test: Cdk2(R122C) (C177A) (Homo sapiens, UniProt P24941, C177A/R122C)
# Construct: poly-histidine; made in house; host or cells: E. coli
# protocol_description: Kinetic thiol consumption assay with Cdk2 mutant R122C
# Type: binding
# Design: key: rate constant with Cdk2 ÷ rate constant with model thiol (fold)
# condition_summary: Cdk2 R122C, additional mutation C177A
Assign Yes to entries whose Rate enhancement, Cdk2 R122C meets or exceeds 0.2; assign No to the rest.

Asked: Could you please find out whether C=CC(=O)N(CC(=O)NC1CC1)C1CC1 [CA-031] has Rate enhancement, Cdk2 R122C that meets 0.2 or exceeds it?
Given back: Yes

Asked: Confirm if Rate enhancement, Cdk2 R122C reported for the compound C=CC(=O)N1CCCc2cc(C(=O)OC)ccc21 [EL-1071] is 0.2 or above.
Given back: Yes

Asked: Can C=CC(=O)N1CC2(CCC2)c2c(F)cccc21 [CA-188] be said to have Rate enhancement, Cdk2 R122C at or above 0.2?
Given back: No

Asked: Evaluate C=CC(=O)NCCc1c(-c2ccccn2)[nH]c2ccc(F)cc12 [EL-1084] : Rate enhancement, Cdk2 R122C at minimum 0.2?
Given back: Yes

Asked: Hi, just wondering whether C=CC(=O)N1CCCC(C(=O)OCC)C1 (centres unmarked) [EL-1187] shows Rate enhancement, Cdk2 R122C of 0.2 or higher.
Given back: No

Asked: Given C=CC(=O)N1CCC(c2nc3ccccc3[nH]2)CC1 [EL-1152] , state whether its Rate enhancement, Cdk2 R122C is at least 0.2.
Given back: Yes

Asked: // inclusive: Rate enhancement, Cdk2 R122C at least 0.2? input: C=CC(=O)N1CC2CN(Cc3ccccc3)CC2C1 (centres unmarked) [CA-207]
Given back: Yes

Asked: Dear colleague, could you confirm whether C=CC(=O)N1CCN(Cc2ccc(Cl)cc2)CC1 [EL-1183] has Rate enhancement, Cdk2 R122C at or above 0.2?
Given back: Yes

Asked: Quick check: does C=CC(=O)Nc1ccc(-c2ncccn2)cc1 [CA-037] have Rate enhancement, Cdk2 R122C greater than or equal to 0.2?
Given back: Yes

Asked: Check if Rate enhancement, Cdk2 R122C >= 0.2 (inclusive). Item: O=C(CCl)N1CCSc2ccccc21 [EN004]
Given back: No

Asked: Form field: Rate enhancement, Cdk2 R122C at least 0.2? Entry: C=CC(=O)NC(C)c1cccc(N2CCOCC2)c1 (centres unmarked) [EL-1153]
Given back: Yes

----------
# system_under_test: Cdk2(N272C) (C177A) (Homo sapiens, UniProt P24941, C177A/N272C)
# Construct: poly-histidine; made in house; host or cells: E. coli
# protocol_description: Kinetic thiol consumption assay with Cdk2 mutant N272C
# Format: binding
# condition_summary: Protein: Cdk2; cysteine position N272C; additional mutation C177A; in h^-1
measure: Rate constant with Cdk2 N272C
When you answer, write just the number.

Asked: Entry under review: C=CC(=O)Nc1cccc(-c2nnnn2C2CC2)c1 . Reported Rate constant with Cdk2 N272C?
Given back: 0.07649

Asked: // Rate constant with Cdk2 N272C lookup, key: C=CC(=O)NC1C2CC3CC(C2)CC1C3 (stereo not drawn)
Given back: 0.01093

Asked: Please give the measured Rate constant with Cdk2 N272C for this molecule: C=CC(=O)NC(C)c1ccc2c(c1)OCO2 (stereo not drawn)
Given back: 0.001691

Asked: Name the recorded Rate constant with Cdk2 N272C for C=CC(=O)N1CCCc2sccc2C1 .
Given back: 0.01334

Asked: Can you share its Rate constant with Cdk2 N272C? I mean this molecule: C=CC(=O)N1CC(Cc2ccccc2)C1
Given back: 0.2085

Asked: Please look up its Rate constant with Cdk2 N272C: C=CC(=O)N1CCN(C(=O)OCC)CC1c1cccs1 (stereo not drawn)
Given back: 0.01425

Asked: What measured Rate constant with Cdk2 N272C goes with FC(F)(F)c1cc(Cl)ncc1Br ?
Given back: 0.009116

Asked: Return reported Rate constant with Cdk2 N272C; argument: C=CC(=O)Nc1cccc(C(F)(F)F)c1 [BN-80]
Given back: 0.006181

Asked: What does the data say about its Rate constant with Cdk2 N272C? Entry: C=CC(=O)NC(Cc1ccccc1)C(O)CF (stereo not drawn)
Given back: 0.0007233

Asked: For the molecule C=CC(=O)N1CC(n2cccn2)C1 , what Rate constant with Cdk2 N272C is on record?
Given back: 0.01019

Asked: Would you mind telling me what Rate constant with Cdk2 N272C value was observed for C=CC(=O)N(C1CC1)C1CCCCC1C1CCCCC1 (stereo not drawn) ?
Given back: 0.007657

Asked: Please report the recorded Rate constant with Cdk2 N272C for C=CC(=O)N1CCn2c(C(=O)NC3CC3)ccc2C1C (stereo not drawn) .
Given back: 0.1319

----------
# system_under_test: Cdk2(S181C) (C177A) (Homo sapiens, UniProt P24941, C177A/S181C)
# Construct: poly-histidine; made in house; host or cells: E. coli
# protocol_description: Kinetic thiol consumption assay with Cdk2 mutant S181C
# Format: binding
# Set-up: key: rate constant with Cdk2 ÷ rate constant with model thiol (fold)
# condition_summary: Cdk2 S181C, additional mutation C177A
Decide by Rate enhancement, Cdk2 S181C: equal to or exceeding 0.5 means condition met, less means condition not met.

Asked: Could you verify whether the entry C=CC(=O)Nc1ccc2c(c1)OC1(CCCC1)O2 [CA-054] shows Rate enhancement, Cdk2 S181C of no less than 0.5?
Given back: condition not met

Asked: Could you tell me if the measured Rate enhancement, Cdk2 S181C of O=C(CCl)N1CCCCCC1 [EN011] reaches 0.5 or more?
Given back: condition not met

Asked: Can C=CC(=O)NC1C2CC3CC(C2)CC1C3 (centres unmarked) [CA-055] be said to have Rate enhancement, Cdk2 S181C at or above 0.5?
Given back: condition met

Asked: Does the molecule C=CC(=O)N(CC(=O)N1CCCC1)CC1CCCO1 (centres unmarked) [CA-080/239] have recorded Rate enhancement, Cdk2 S181C that is 0.5 or more?
Given back: condition not met

Asked: Given the entry C=CC(=O)NC1(c2noc(C3CC3)n2)CCCC1 [CA-044] , answer whether its Rate enhancement, Cdk2 S181C meets or surpasses 0.5.
Given back: condition not met

Asked: Given the entry C=CC(=O)NC1CCN(Cc2ccccc2)CC1 [BN-78] , answer whether its Rate enhancement, Cdk2 S181C meets or surpasses 0.5.
Given back: condition not met

Asked: Threshold query (Rate enhancement, Cdk2 S181C >= 0.5) on C=CC(=O)NCCc1c(-c2ccccn2)[nH]c2ccc(F)cc12 [EL-1084]
Given back: condition not met

Asked: Check the entry C=CC(=O)NCCCN(C(=O)C1CCC1)C1CC1 [CA-060] : does Rate enhancement, Cdk2 S181C equal or exceed 0.5?
Given back: condition met

Asked: // inclusive: Rate enhancement, Cdk2 S181C at least 0.5? input: C=CC(=O)NCC1CCCN1S(=O)(=O)c1ccc(C(=O)O)cc1 (centres unmarked) [BN122]
Given back: condition met

Asked: hey, is Rate enhancement, Cdk2 S181C for this one >= 0.5? C=CC(=O)Nc1ccc2nc(C)[nH]c2c1 [EL-1109]
Given back: condition met

Asked: Test whether the molecule C=CC(=O)N(c1cccc2ncccc12)C1CCC1 [CA-032/228] records Rate enhancement, Cdk2 S181C of 0.5 or higher.
Given back: condition met

Asked: Is it the case that C=CC(=O)N1CCCC(C(=O)OCC)C1 (centres unmarked) [EL-1187] has Rate enhancement, Cdk2 S181C reaching or exceeding 0.5?
Given back: condition not met

Asked: Check if Rate enhancement, Cdk2 S181C >= 0.5 (inclusive). Item: C=CC(=O)N(C)C1C2CCOC2C1(C)C (centres unmarked) [CA-182]
Given back: condition met

Asked: Has C=CC(=O)N(c1ccc2c(c1)OCCO2)C1CC1 [CA-167] a recorded Rate enhancement, Cdk2 S181C greater than or equal to 0.5?
Given back: condition not met

Asked: Please tell me: is the molecule C=CC(=O)Nc1cccc2ncccc12 [CA-012] at or over 0.5 in terms of Rate enhancement, Cdk2 S181C?
Given back: condition met

Asked: Does the reported Rate enhancement, Cdk2 S181C for C=CC(=O)NCC1CN(C2CC2)CCO1 (centres unmarked) [CA-038] fall at or above the 0.5 mark?
Given back: condition not met

Asked: Would you say C=CC(=O)N1CCN(C(=O)OC(C)(C)C)c2ccccc21 [EL-1157] shows Rate enhancement, Cdk2 S181C at minimum 0.5?
Given back: condition not met

Asked: Please tell me: is the molecule C=CC(=O)N1CCCC(N2C(=O)CC3(CCCC3)C2=O)C1 (centres unmarked) [CA-236] at or over 0.5 in terms of Rate enhancement, Cdk2 S181C?
Given back: condition not met

Asked: Check the entry C=CC(=O)N1CCC2(CC1)CC2C(=O)OC (centres unmarked) [CA-039] : does Rate enhancement, Cdk2 S181C equal or exceed 0.5?
Given back: condition met

Asked: Threshold query (Rate enhancement, Cdk2 S181C >= 0.5) on C=CC(=O)N1C(=O)CC(c2ccccc2)N(C(=O)C=C)c2ccccc21 (centres unmarked) [CA-165-1]
Given back: condition not met

Asked: State whether the measured Rate enhancement, Cdk2 S181C reaches 0.5, counting equality as reaching it, for C=CC(=O)N1CCCc2sccc2C1 [CA-034]
Given back: condition met

Asked: Item C=CC(=O)N1CCCC1c1ccc(OC)cc1 (centres unmarked) [EL-1062] with Rate enhancement, Cdk2 S181C of 0.5 or above?
Given back: condition met
